assay: Quantitative highthroughput screen to assess conditional lethalithy of SEM cells grown in Human Plasma-Like Medium with dialyzed fetal bovine serum (HPLM+ds) (AID 1963882); conditions: SEM B-ALL cells in HPLM+ds, CellTiter-Glo viability, 48 h; series mostly up to 45.8 µM; note: nearly all actives have a fitted effect of over 35% in size
Records with an inconclusive call do not appear. Active and inactive are the calls of the source. Calls come from the whole dose curve; as a rule, active = well fitted cell-killing curve with a large enough effect; inconclusive = small, poorly fitted or top-dose-only effect, or effect the other way; inactive = no such curve, though single readings can be large or run the other way.
Choose the fitting class; nothing outside 1 (yes) = active, 0 (no) = inactive is accepted.

Example entries begin here.
Ask | Record request — test call for CNC(=O)c1ccc2c(C(=Nc3cccc(CN(C)C)c3)c3ccccc3)c(O)[nH]c2c1
Reply | 1 (yes)

Ask | Now the same for N=C(N=C(N)N)N1CCOCC1
Reply | 0 (no)

Ask | Try this compound next: N=c1ccn2c(n1)O[C@H]1[C@@H](O)[C@@H](CO)O[C@H]12
Reply | 1 (yes)

Ask | Now the same for CNS(=O)(=O)Cc1ccc2[nH]cc(CCN(C)C)c2c1
Reply | 0 (no)

New cases:
Ask | For CN(C)CC=CC(=O)Nc1cc2c(Nc3ccc(F)c(Cl)c3)ncnc2cc1O[C@H]1CCOC1 , which call appears in the assay record?
Reply | 1 (yes)

Ask | Another compound to check: CN1CC(=O)NC1=NC(=O)Nc1cccc(Cl)c1
Reply | 0 (no)
